src = PubChem BioAssay (NCI)

Consider the following molecules; for each one, report its TGI.
system: NCI-H522 lung; assay: NCI tumour cell line growth inhibition, 48 h

Task: Look at this molecule and give its reported TGI. `N#C/C(=C1/c2cc([N+](=O)[O-])ccc2-c2c1cc([N+](=O)[O-])cc2[N+](=O)[O-])N1CCCCC1`
Result: > 100 µM

Task: Look at this molecule and give its reported TGI. CC1(O)CCC2(C)C(=O)C1(C)CCC21OCCO1 (configuration not stated)
Result: > 100 µM

Task: Look at this molecule and give its reported TGI. C=CCOC1(CC=C)C(=O)OC2C(O)COC21O (configuration not stated)
Result: > 100 µM

Task: Look at this molecule and give its reported TGI. Cc1cccc(N=C2NC(=O)C(CC(=O)Nc3ccc(C)cc3C)S2)c1 (configuration not stated)
Result: > 100 µM

Task: Look at this molecule and give its reported TGI. `CN(C)CCNC(=O)c1cc(NC(=O)c2cc(NC(=O)CC/C=C3/[C@@H]4CC[C@H]3N=N4)cn2C)cn1C`
Result: > 100 µM

Task: Look at this molecule and give its reported TGI. C=C(CCOC)CCC1CCCCC(=C)[C@H]1O (some centres not stated)
Result: > 100 µM

Task: Look at this molecule and give its reported TGI. `CNC(=O)N(CCC#N)CCCN(C(=O)N(C)C)c1ccccc1`
Result: > 100 µM

Task: Look at this molecule and give its reported TGI. `COc1cc2oc(-c3ccc4c(c3)OCO4)c(OC)c(=O)c2c(O)c1OC`
Result: > 50 µM

Task: Look at this molecule and give its reported TGI. `Nc1cc2[nH]cnc2c(=O)[nH]1`
Result: > 215 µM

Task: Look at this molecule and give its reported TGI. COC(=O)C(=O)C(C(=O)C(N)=O)c1nc2ccc(C(=O)c3ccccc3)cc2[nH]c1=O (configuration not stated)
Result: > 100 µM

Task: Look at this molecule and give its reported TGI. NC(=S)N/N=C1\CCCC1C(O)(C(F)(F)Cl)C(F)(F)Cl (configuration not stated)
Result: > 10 µM

Task: Look at this molecule and give its reported TGI. `Cc1nn(CNc2ccccc2C(F)(F)F)c(=S)n1/N=C/c1ccc(F)cc1`
Result: > 100 µM

Task: Look at this molecule and give its reported TGI. `O=C1CCN2CCC(=O)c3c2c(cc2ccccc32)N1`
Result: > 100 µM

Task: Look at this molecule and give its reported TGI. COc1cccc(C23CCCC(C2)N(C)CC3OC(=O)c2ccccc2)c1OC (configuration not stated)
Result: 67.6 µM

Task: Look at this molecule and give its reported TGI. `CC(C)(C)C(=O)N1CCN(C=O)C1=S`
Result: > 100 µM

Task: Look at this molecule and give its reported TGI. `O=C(O)Cc1ccccc1CCc1ccccc1Cl`
Result: > 100 µM

Task: Look at this molecule and give its reported TGI. `CCCCN(CCCC)CCc1c(C)cc(C)c(CCN(CCCC)CCCC)c1O`
Result: 7.54 µM

Task: Look at this molecule and give its reported TGI. `COc1ccc2ccccc2c1CN1CCOCCOCCN(Cc2c(OC)ccc3ccccc23)CCOCCOCC1`
Result: > 89.8 µM

Task: Look at this molecule and give its reported TGI. COC(=O)/C=C1\C(=O)C=C2[C@@H]3C[C@H]4C[C@H](CC[C@@]4(C)N21)C3(C)NC(C)=O (some centres not stated)
Result: 3.6 µM

Task: Look at this molecule and give its reported TGI. CC1CN=C(c2ccc(CN3CCC(C4CCN(Cc5ccc(C6=NCC(C)N6)cc5)CC4)CC3)cc2)N1 (configuration not stated)
Result: 33.7 µM

Task: Look at this molecule and give its reported TGI. `O=C(O)c1cccc(/C=C/c2ccccc2)c1`
Result: > 100 µM

Task: Look at this molecule and give its reported TGI. CN1C(=O)C2C=CC1C1CCC2N(C)C1=O (configuration not stated)
Result: > 100 µM

###

Consider the following compounds; for each one, report its TGI.
test system: MOLT-4 leukemia; experiment: NCI tumour cell line growth inhibition, 48 h

Task: Look at this compound and give its reported TGI. `Cc1ccc(/C=N\NC(=O)c2ccncc2)s1`
Result: > 100 µM

Task: Look at this compound and give its reported TGI. `CC(C)(C)C(=O)N1CCN(C=O)C1=S`
Result: > 100 µM

Task: Look at this compound and give its reported TGI. CCOC(=O)c1c(-c2ccccc2)c(C(OC(c2ccccc2)c2c(-c3ccccc3)c(C(=O)OCC)n3ccccc23)c2ccccc2)c2ccccn12 (stereo not drawn)
Result: > 100 µM

Task: Look at this compound and give its reported TGI. `C[C@]12CC[C@H]3[C@@H](CCC4=C(Br)C(=O)C=C[C@@]43O)[C@@H]1CCC2=O`
Result: > 100 µM

Task: Look at this compound and give its reported TGI. C=CCOC1(CC=C)C(=O)OC2C(O)COC21O (stereo not drawn)
Result: > 100 µM

Task: Look at this compound and give its reported TGI. `CCN(CC)CCOc1c(OC)c(Br)cc2c(C)c(C(=O)OC)oc12`
Result: 1.23 µM

Task: Look at this compound and give its reported TGI. `O=[N+]([O-])c1ccc2c(c1)n1c(N3CCCC3)[n+]3ccccc3c1c1c3cccc[n+]3c(N3CCCC3)n21`
Result: > 100 µM

Task: Look at this compound and give its reported TGI. `O=C(CSc1nc(-c2ccccc2)c(-c2ccccc2)[nH]1)NNC(=S)Nc1ccccc1`
Result: > 100 µM

Task: Look at this compound and give its reported TGI. `C/C=C(/C)c1cnc(CC(C)C)c(=O)[nH]1`
Result: > 100 µM

Task: Look at this compound and give its reported TGI. COc1ccc(N2C(=O)C3c4[nH]c5ccccc5c4C4CCCCCCC4C3C2=O)cc1 (stereo not drawn)
Result: 37.9 µM

Task: Look at this compound and give its reported TGI. `COc1ccc(/C=C\c2cc(OC)c(OC)c(OC)c2)c(NS(=O)(=O)c2ccc(Cl)cc2)c1O`
Result: 83.3 µM

Task: Look at this compound and give its reported TGI. `Clc1ccc2c(c1)C(N1CCNCC1)=Nc1ccccc1O2`
Result: 4.19 µM

Task: Look at this compound and give its reported TGI. `Nc1nc(N)nc(CC(=O)O)n1`
Result: > 100 µM

Task: Look at this compound and give its reported TGI. `CCCCCCNC(=O)n1cc(F)c(=O)[nH]c1=O`
Result: 44.2 µM

Task: Look at this compound and give its reported TGI. `COC(=O)[C@H]1N[C@@H](C(=O)OC)C23CCC[C@H]2CC[C@]1(C(OC)OC)C3`
Result: > 100 µM

Task: Look at this compound and give its reported TGI. COC(=O)C1Cc2c([nH]c3ccccc23)C(c2ccccc2O)N1Cc1ccccc1 (stereo not drawn)
Result: > 46.4 µM

Task: Look at this compound and give its reported TGI. COC(=O)c1cc(C)ccc1C1CN=NC12Cc1c(C)cc(C)cc1C2=O (stereo not drawn)
Result: 56.2 µM

Task: Look at this compound and give its reported TGI. `Cc1cc2nc(-c3c(N)ncc(C#N)c3-c3ccc(Cl)cc3)[nH]c2cc1C`
Result: > 100 µM

Task: Look at this compound and give its reported TGI. COc1cc(/C=C2\CC3C4CC=C5C[C@@H](O)CC[C@]5(C)C4CC[C@]3(C)C2=O)ccc1OCCCn1ccnc1 (stereo partly drawn)
Result: 41.8 µM

Task: Look at this compound and give its reported TGI. `COc1cc2c(cc1OC)C(=O)/C(=C/c1ccc(O)cc1)CC2`
Result: > 10 µM

Task: Look at this compound and give its reported TGI. `COc1cc2ncnc3c2cc1OCCCCCN(C)Cc1ccc(Br)cc1N3`
Result: > 100 µM

Task: Look at this compound and give its reported TGI. `Cn1ccc2c(c1=O)C(=O)OC2(C)C`
Result: > 100 µM

Task: Look at this compound and give its reported TGI. CCOC(=O)CCC(NC(=O)OCc1ccccc1)C(=O)NC(CCC(=O)OCC)C(=O)NC(CCC(=O)OCC)C(=O)NNC(=O)OC(C)(C)C (stereo not drawn)
Result: > 100 µM

Task: Look at this compound and give its reported TGI. `N#Cc1c(C[n+]2ccccc2)c2ccccc2oc1=O`
Result: > 100 µM

Task: Look at this compound and give its reported TGI. CC1(O)CCC2(C)C(=O)C1(C)CCC21OCCO1 (stereo not drawn)
Result: > 100 µM

Task: Look at this compound and give its reported TGI. `O=c1[nH]c2cc([N+](=O)[O-])c(Nc3c4ccccc4nc4ccccc34)c([N+](=O)[O-])c2[nH]1`
Result: 5.02 µM

Task: Look at this compound and give its reported TGI. `CCCCCCNC(=O)Oc1ccc(/C(=C(/C)Cc2ccc(OC)cc2)c2ccc(OCCN(C)C)cc2)cc1`
Result: 11.5 µM

Task: Look at this compound and give its reported TGI. `C[C@]12CC[C@@H](OC(=O)N(CCCl)N=O)C[C@@H]1CC[C@@H]1[C@@H]2CC[C@]2(C)C(=O)CC[C@@H]12`
Result: > 57.7 µM

Task: Look at this compound and give its reported TGI. COc1nc(C)cc2c(=O)n(-c3ccccc3)n(CC(O)CN3CCN(c4ccc(Cl)cc4)CC3)c(=O)c12 (stereo not drawn)
Result: > 50 µM

Task: Look at this compound and give its reported TGI. COC(=O)[C@@]1(C)CCC[C@]2(C(=O)O)C3Cc4occc4[C@H](C)[C@@H]3CCC21 (stereo partly drawn)
Result: > 100 µM

Task: Look at this compound and give its reported TGI. `Nn1c(Sc2nc3ccccc3c(=O)n2N)nc2ccccc2c1=O`
Result: 3.69 µM

Task: Look at this compound and give its reported TGI. COc1ccc2c(c1)C(=O)C1CCC(=O)N1C2c1ccc2c(c1)OCO2 (stereo not drawn)
Result: 11.2 µM

Task: Look at this compound and give its reported TGI. `CCCCNC(=O)Oc1ccc(/C(=C(/CC)Cc2ccccc2)c2ccc(OCCN3CCCCCC3)cc2)cc1`
Result: 72.7 µM
